Target: 5-HT2A receptor (Homo sapiens, UniProt P28223)
Sequence (P28223 whole entry): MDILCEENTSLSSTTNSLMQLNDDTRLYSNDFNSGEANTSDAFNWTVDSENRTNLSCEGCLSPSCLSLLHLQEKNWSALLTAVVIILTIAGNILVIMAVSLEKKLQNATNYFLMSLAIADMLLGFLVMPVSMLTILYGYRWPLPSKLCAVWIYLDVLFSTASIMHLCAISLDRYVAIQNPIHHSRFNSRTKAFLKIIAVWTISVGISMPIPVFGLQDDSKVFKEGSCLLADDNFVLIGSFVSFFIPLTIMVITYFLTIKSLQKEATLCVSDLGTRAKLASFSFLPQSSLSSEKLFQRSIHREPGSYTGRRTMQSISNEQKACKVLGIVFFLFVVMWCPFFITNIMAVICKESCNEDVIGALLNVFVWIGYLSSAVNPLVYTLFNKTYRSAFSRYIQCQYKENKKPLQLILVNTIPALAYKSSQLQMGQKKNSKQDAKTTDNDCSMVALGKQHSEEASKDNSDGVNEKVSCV
Experiment: cell-based
Type: cell-based
Conditions: agonist, beta-arrestin recruitment, max dose; read-out: 5-HT2A Arrestin % Act @ Max Dose
REPORTED PROPERTY: Emax (%)

# COMPOUND, TEST RESULT
records = [
    ("CCN(CC)C(=O)[C@@H]1C=C2c3cccc4[nH]cc(c34)C[C@H]2N(Cc2ccc(F)cc2)C1 [Compound 49]", 39.4),
    ("C=CCN1C[C@H](C(=O)N[C@H](C)CC)C=C2c3cccc4[nH]cc(c34)C[C@H]21 [Compound 8]", 112),
    ("CC[C@@H](C)NC(=O)[C@H]1C=C2c3cccc4[nH]cc(c34)C[C@H]2N(C)C1 [Int8a]", 35.5),
    ("CCC(CC)NC(=O)[C@H]1C=C2c3cccc4[nH]cc(c34)C[C@H]2N(C)C1 [Int14a]", 44.3),
]

###

Reported pEC50 values follow for various molecules
Molecular target: 5-HT1A receptor (Homo sapiens, UniProt P08908)
Sequence (P08908 1-422): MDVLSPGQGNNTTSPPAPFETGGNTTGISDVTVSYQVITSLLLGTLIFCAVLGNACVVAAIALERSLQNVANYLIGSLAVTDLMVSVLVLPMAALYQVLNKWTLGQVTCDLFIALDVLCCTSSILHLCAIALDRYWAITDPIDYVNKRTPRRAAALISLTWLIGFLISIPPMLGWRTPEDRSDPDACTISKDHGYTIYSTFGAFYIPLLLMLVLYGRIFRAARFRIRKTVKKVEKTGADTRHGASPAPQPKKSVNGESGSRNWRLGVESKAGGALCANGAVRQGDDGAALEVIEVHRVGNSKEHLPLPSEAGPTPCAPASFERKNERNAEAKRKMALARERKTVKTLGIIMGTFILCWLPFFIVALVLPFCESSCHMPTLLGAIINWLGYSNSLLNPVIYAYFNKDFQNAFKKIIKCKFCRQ
Assay: cell-based
Settings: agonist, Ca2+ flux, CHO cells with Gα15
pEC50: −log10 of the molar value.
REPORTED PROPERTY: pEC50

# QUERY SMILES, REPORTED PROPERTY, BOUND TYPE, TEST RESULT
rows = [
    ("CCN(CC)C(=O)[C@@H]1C=C2c3cccc4[nH]cc(c34)C[C@H]2N(CC2CCCCC2)C1", "pEC50", "<", 4.00),
    ("CCN(CC)C(=O)[C@@H]1C=C2c3cccc4[nH]cc(c34)C[C@H]2N(Cc2ccccc2)C1", "pEC50", "=", 5.47),
    ("C[C@H]1C[C@H](C)N1C(=O)[C@@H]1C=C2c3cccc4[nH]cc(c34)C[C@H]2N(Cc2ccccc2)C1", "pEC50", "=", 4.27),
    ("CCN(CC)C(=O)[C@@H]1C=C2c3cccc4[nH]cc(c34)C[C@H]2N(Cc2cccc3ccccc23)C1", "pEC50", "=", 4.15),
    ("CCN(CC)C(=O)[C@@H]1C=C2c3cccc4[nH]cc(c34)C[C@H]2N(Cc2ccc(Cl)cc2)C1", "pEC50", "<", 5.00),
    ("CCN(CC)C(=O)[C@@H]1C=C2c3cccc4[nH]cc(c34)C[C@H]2N(Cc2ccc(F)c(F)c2)C1", "pEC50", "<", 4.00),
    ("CCN(CC)C(=O)[C@@H]1C=C2c3cccc4[nH]cc(c34)C[C@H]2N(Cc2ccccc2C)C1", "pEC50", "=", 4.71),
]
